So I've got a bunch of compounds here, and I need their Percent Effect values.
test system: Wolbachia pipientis; experiment: Anti-Wolbachia Cell-Based Screen; format: functional; design: scale not given: in the data most compounds retested in dose-response had high values; settings: 5 µM
About 13,000 (27%) of roughly 48,000 compounds showed an effect of 50% or more. This is one part of the list.
Your reply should be a number followed by the unit it is expressed in.

Provide Percent Effect, recorded with Wolbachia pipientis, of c1ccc2oc(N3CCn4c(nnc4C4CC4)C3)nc2c1
-3.429%

Report Percent Effect from Wolbachia pipientis testing of CNC(=O)CN1CCC(CN(C)Cc2ccncc2Cl)CC1
104.1%

Name the value of Percent Effect reported for CNC(=O)CN1CCC(NC(=O)Cc2ccccc2OC(C)C)CC1 when tested on Wolbachia pipientis.
-20.84%

Enter measured Percent Effect, system Wolbachia pipientis, for the compound shown: Cc1cccc2c1nc(COCC(=O)O)n2-c1cnc(N)cn1
0.6066%

Please look at O=S(=O)(c1ccccc1Cl)N1CCCC(c2ncc[nH]2)C1 (stereo unspecified) and tell me its recorded Percent Effect on Wolbachia pipientis.
-0.103%

Return reported Percent Effect for target or system Wolbachia pipientis, item Cn1cnnc1S(=O)(=O)C1CCN(S(=O)(=O)c2c(Cl)cccc2Cl)CC1 .
-14.3%

Report its Percent Effect with Wolbachia pipientis as the test system: CN1CCC(c2nnc3n2CCN(S(=O)(=O)c2ccccc2Cl)C3)CC1
149.5%

Check Wolbachia pipientis data and give Percent Effect for CN1CCCC1c1nnc2n1CCN(S(=O)(=O)c1ccccc1Cl)CC2 (stereo unspecified) .
104.7%

Please tell me the measured Percent Effect for CN1CCCC(c2nnc3n2CCN(S(=O)(=O)c2ccccc2Cl)C3)C1 (stereo unspecified) ; system: Wolbachia pipientis.
97.31%

# assay system Wolbachia pipientis: give Percent Effect of Cc1nnc2n1CCN(C(=O)CN1C(=O)C(C)Oc3ccccc31)C2 (stereo unspecified)
3.234%

Quote Percent Effect with test system Wolbachia pipientis for CNC(=O)CN1CCC(c2nn(C)c(=O)n2-c2ccccc2)CC1
1.276%

###

system: Wolbachia pipientis; assay: Anti-Wolbachia Cell-Based Screen; assay type: functional; parameters: scale not given: in the data most compounds retested in dose-response had high values; details: 5 µM
The campaign covered roughly 48,000 compounds. About 13,000 (27%) showed an effect of 50% or more. This is one part of the list.
Please respond with reported Percent Effect for every item in the list.
Your answer should be a plain number; it is taken to be in %.

Using known records, supply Percent Effect for COc1ccccc1COCC(O)CN(C)c1ccc(C)cc1C (configuration not stated)
-38.72

Return the recorded Percent Effect value; entry: Cl.O=C(NCCn1nc(C2CCNC2)c2cccnc21)c1ccccn1 (configuration not stated)
108.3

Quick one: give measured Percent Effect for N#Cc1ccccc1CNC(C(=O)N1CCOCC1)c1ccccc1 (configuration not stated)
-7.429

Quick one: give measured Percent Effect for CCOC(=O)CC1CCCCN1C(=O)c1cc(C)on1 (configuration not stated)
7.011

Supply measured Percent Effect of O=C(NCCCc1nnc2ccccn12)c1ccccc1C1CCNC1 (configuration not stated) in your reply.
3.583

For the molecule O=C(NCCN1CCNCC1)c1nc2ccccc2c(=O)[nH]1 , give its reported Percent Effect.
-2.833

Return reported Percent Effect. Input molecule: Cl.O=C(NCCn1nc(C2CCNC2)c2cccnc21)c1ccccc1 (configuration not stated)
112

Dear colleague, please send me the reported Percent Effect for Cc1ccc(CN(C)C(=O)CN2CCCC2c2cnn(C)c2)cc1 (configuration not stated) when you can.
-7.848

Return reported Percent Effect. Input molecule: O=C(NCCn1nc2ccccn2c1=O)c1cc(C2CC2)[nH]n1
7.505

Return Percent Effect for the following molecule: CCOc1ccccc1N(C)Cc1nccn1C
-5.564

Hello, please tell me recorded Percent Effect for this one: O=C(NCc1cnn2cccnc12)c1cccc(CC2CCNCC2)c1
4.069

Supply recorded Percent Effect for COCCC(=O)N[C@H]1CN(c2nc(C)c3c(n2)CCCC3)C[C@@H]1C1CC1 here.
40.93

###

test system: Wolbachia pipientis; test: Anti-Wolbachia Cell-Based Screen; format: functional; set-up: scale not given: in the data most compounds retested in dose-response had high values; conditions: 5 µM
In all, about 48,000 compounds went through this assay and about 13,000 (27%) showed an effect of 50% or more. The list shows a part of the results.
measurement.type: Percent Effect (%)
Record the value in %, omitting the unit from your answer.

Write down the reported Percent Effect (system: Wolbachia pipientis) of CCc1nc(CNc2ccc(C(=O)NCc3ccco3)cc2C)no1
-7.097

Fill: Percent Effect (Wolbachia pipientis) for this compound CCc1noc(CNc2ccc(C(=O)N3CCCC3)cc2C)n1
101.8

State Percent Effect (Wolbachia pipientis) of CC(C)Cc1noc(CNc2ccccc2CC(=O)N(C)C)n1 .
7.405

Please indicate recorded Percent Effect of CC(C)Cc1noc(CN2CCCN(C(=O)c3cccc(Cl)c3)CC2)n1 measured with Wolbachia pipientis.
-52.16

// fetch Percent Effect for CCc1noc(CNc2ccc(CC(=O)N3CCSCC3)cc2)n1 ; system: Wolbachia pipientis
21.21

Please indicate recorded Percent Effect of CCCc1noc(CNc2ccc(C(=O)N3CCCC3)cc2C)n1 measured with Wolbachia pipientis.
101

###

system: Wolbachia pipientis; test: Anti-Wolbachia Cell-Based Screen; format: functional; design: scale not given: in the data most compounds retested in dose-response had high values; details: 5 µM
Among all 48,000 compounds or so, about 13,000 (27%) showed an effect of 50% or more. This is one part of the list.
For each of the compounds below, state its Percent Effect.

Specify Percent Effect for Cc1cnc(CN2CCOC(CNc3cccnn3)C2)cn1 (stereo unspecified) and stop.
0.4879%

Supply recorded Percent Effect for COc1ccc(S(=O)(=O)N2C[C@@H]3CN(C)CCO[C@@H]3C2)cc1 here.
104.2%

Give the reported value of Percent Effect for this record: CN1CCO[C@@H]2CN(S(=O)(=O)c3ccccc3)C[C@@H]2C1.O=C(O)C(F)(F)F
98.27%

Look up Percent Effect of CCc1nc(CN2CCOC(CNc3cccnn3)C2)cs1 (stereo unspecified) and report it.
75.15%

Tell me measured Percent Effect for Cc1nc(CN2CCOC(CNc3cccnn3)C2)oc1C (stereo unspecified) please.
3.025%

Quick one: give measured Percent Effect for COCc1ncc(CN2C[C@@H](C(=O)O)[C@H](C(C)C)C2)cn1
0.5192%

Note down Percent Effect recorded for CCc1nnc2n1CC(CNCc1nc(-c3ccsc3)no1)CC2 (stereo unspecified)
-16.4%

Dear colleague, please send me the reported Percent Effect for COCc1nc(CN2CCOC(CN(C)c3cccnn3)C2)cs1 (stereo unspecified) when you can.
6.806%

Please report the measured Percent Effect for COCc1nc(CN2CCOC(CNc3cccnn3)C2)cs1 (stereo unspecified)
82.18%

Respond only with Percent Effect recorded for Cc1nc(CN2CCOC(CNc3cccnn3)C2)cs1 (stereo unspecified)
-1.722%

Could you please provide reported Percent Effect for CC(C)c1nc(CN2CCOC(CNc3cccnn3)C2)cs1 (stereo unspecified) ? Thanks!
87.62%

###

test system: Wolbachia pipientis; assay: Anti-Wolbachia Cell-Based Screen; format: functional; set-up: scale not given: in the data most compounds retested in dose-response had high values; details: 5 µM
Hit rate of the full screen: of about 48,000 compounds, about 13,000 (27%) showed an effect of 50% or more. Some of the results follow.
measurement.type: Percent Effect (%)
# number only, unit % dropped from output

Return reported Percent Effect. Input molecule: CC(C)(NC(=O)Cc1ccccc1F)C(=O)O
90.43

Report measured Percent Effect; entry is Cc1cccc(S(=O)(=O)NC(=O)CN(C)Cc2ccccc2)c1
-8.063

Find the measured Percent Effect of CC(C)(CNC(=O)C1CCCN(C(N)=O)C1)c1cccc(Cl)c1 (stereo unspecified) and report it.
-3.245

Identify measured Percent Effect corresponding to CCN(C)S(=O)(=O)NCC1(c2ccccc2Br)CC1
2.269

Give the reported value of Percent Effect for this record: Cc1nnc([C@H]2C[C@@H]3CCN(C(=O)C4CCOCC4)C[C@H]3O2)[nH]1
-13.79

Please indicate Percent Effect recorded for CN(Cc1cnn(C)c1)S(=O)(=O)N1CCCCCC1
16.54

Provide measured Percent Effect value, entry: CN(C)CCCN1CC2(CCN(C(=O)C3(C)CCCCO3)CC2)OC1=O (stereo unspecified)
3.267

Please report the measured Percent Effect for Cc1cccc(OCCC(=O)NCC(C)(C)C(N)=O)c1
-9.486

Report Percent Effect, nothing else, for this molecule: Cc1nnc([C@@H]2C[C@H]3CN(C(=O)c4sccc4C)C[C@H]3O2)[nH]1
-0.8336

Specify Percent Effect for COCCS(=O)(=O)Cc1nnnn1-c1ccccc1 and stop.
8.083

# return recorded Percent Effect for input O=C(Cc1cccc(F)c1F)NS(=O)(=O)c1ccc(Cl)cc1F
16.65

###

system: Wolbachia pipientis; test: Anti-Wolbachia Cell-Based Screen; type: functional; design: scale not given: in the data most compounds retested in dose-response had high values; settings: 5 µM
Hit rate of the full screen: of about 48,000 compounds, about 13,000 (27%) showed an effect of 50% or more. The list shows a part of the results.
measurement.type: Percent Effect (%)
Provide the reading as a plain figure in %.

Give the value of Percent Effect reported for the following: c1cncc(CN2CCC(NCCc3ccc4c(c3)OCO4)CC2)c1
3.399

Determine from records and report Percent Effect for Cc1cnn(C2CCCN(C(=O)c3cnc4ccccc4n3)C2)c1 (stereo unspecified)
-3.195

# return recorded Percent Effect for entry c1cc2c(cc1CN1CCC(Cc3noc(C4CC4)n3)CC1)OCCO2
75.34

Give Percent Effect for the following compound: CN(Cc1noc(C2CC2)n1)CC1CCN(CCO)CC1
15.04

Identify Percent Effect associated with the compound c1cc(C2CCN(Cc3ccc4c(c3)OCO4)CC2)ccn1
106.9

Let me know recorded Percent Effect for c1cc(CN2CCC(Cc3noc(C4CC4)n3)CC2)c2c(c1)OCO2 , thanks.
85.87
